tested on: A549 NSCLC; assay: NCI tumour cell line growth inhibition, 48 h
Give TGI for every item shown.

State the measured TGI (A549 NSCLC) of COc1cccc(CCC2CCCN(c3cc(C)nc(N)n3)C2)c1 (configuration not stated) 15.2 µM

State the measured TGI (A549 NSCLC) of `Cc1cc(O)c2c(c1O)C(=O)c1cccc(O)c1C2=O` > 100 µM

State the measured TGI (A549 NSCLC) of CC1(C)CC(O)C2=C(O1)C(=O)c1ncccc1C2=O (configuration not stated) 23.4 µM

State the measured TGI (A549 NSCLC) of OC(c1cc(-c2cccc(Cl)c2)nc2ccccc12)C1CCCCN1 (configuration not stated) 3.1 µM

State the measured TGI (A549 NSCLC) of CCOP(=O)(C=C=C1CCC2[C@@H]3CCc4cc(OC)ccc4C3CC[C@]12C)OCC (some centres not stated) 18.4 µM

State the measured TGI (A549 NSCLC) of `NC(=O)C(=O)c1ncn(Cc2ccccc2)c1N` > 100 µM

State the measured TGI (A549 NSCLC) of `NC(=S)N/N=C/c1nccc2ccccc12` > 100 µM

State the measured TGI (A549 NSCLC) of C=CCC(N[C@@H](CO)c1ccccc1)c1cn(Cc2ccccc2Cl)c(=O)n(Cc2ccccc2Cl)c1=O (some centres not stated) > 100 µM

State the measured TGI (A549 NSCLC) of COC(=O)C(=O)C(C(=O)C(=O)Nc1cccc(C(C)=O)c1)c1nc2ccc([N+](=O)[O-])cc2[nH]c1=O (configuration not stated) > 100 µM

State the measured TGI (A549 NSCLC) of CC(=O)OC1CC2CCN3C(=O)c4cc5c(cc4[C@H](C1OC(C)=O)C23)OCO5 (some centres not stated) > 100 µM

State the measured TGI (A549 NSCLC) of `C[Si](C)(C)C#Cc1cc(-c2nc3ccccc3s2)ccc1N` 40.7 µM

State the measured TGI (A549 NSCLC) of `COc1ccc(N=C2S/C(=N\C(=Nc3ccccc3)SCc3ccccc3)N(c3ccccc3)C2=Nc2ccc(OC)cc2)cc1` > 100 µM

State the measured TGI (A549 NSCLC) of N#CC(N)c1ccc(OCCCCCCCCCCOc2ccc(C(N)C#N)cc2)cc1 (configuration not stated) > 100 µM

State the measured TGI (A549 NSCLC) of O=C(O)CSC(CC1(c2ccc(Cl)cc2)NC(=O)CS1)c1ccc(Cl)cc1 (configuration not stated) > 100 µM

State the measured TGI (A549 NSCLC) of `COc1ccc(NC(=S)N/N=C\c2ccc(NC(C)=O)cc2)cc1` > 100 µM

State the measured TGI (A549 NSCLC) of `CC(C)(C)n1c(=O)n2n(c1=O)Cc1cccc3cccc(c13)C2` > 100 µM

State the measured TGI (A549 NSCLC) of `CCN(CC)CCNc1ccc(C)c2sc3cc(Cl)ccc3c(=O)c12` 3.28 µM

State the measured TGI (A549 NSCLC) of `Nc1ccccc1NC(=O)c1ccc(CNc2nccc(-c3cccnc3)n2)cc1` > 47.6 µM

State the measured TGI (A549 NSCLC) of `Cc1ccc(/C=N/n2c(Cc3ccccc3)n[nH]c2=O)cc1` > 100 µM

State the measured TGI (A549 NSCLC) of `Cn1c(NNc2ccccc2)cc(=O)[nH]c1=O` > 100 µM

State the measured TGI (A549 NSCLC) of `CC(=O)Nc1ccc(/C=c2\sc3nnc(CCC(=O)Nc4ccccc4Cl)n3c2=O)cc1` > 100 µM

State the measured TGI (A549 NSCLC) of `NC1=CC(=O)c2cccnc2C1=O` 15 µM

----------
system: SW-620 colon; test: NCI tumour cell line growth inhibition, 48 h
Give TGI for every item shown.

Check the records and state TGI for `COc1cccc2ccc(C(=O)c3ccccc3)nc12` > 100 µM

Check the records and state TGI for `Cc1cc(=O)[nH]c(N/N=C/c2cc(Br)ccc2O)n1` > 100 µM

Check the records and state TGI for `CCOC(=O)c1ccc2c(c1)Cc1cc([N+](=O)[O-])ccc1-2` > 100 µM

Check the records and state TGI for CN(C)CCCC1c2ccccc2Oc2ccc(C(F)(F)F)cc21 (stereo unspecified) 33.7 µM

Check the records and state TGI for `C=C(C)[C@@H]1CC[C@]2(COCCC#N)CC[C@]3(C)[C@H](CC[C@@H]4[C@@](C)(CCCNCCC#N)[C@H](C(=C)C)CC[C@]43C)[C@@H]12` 31.2 µM

Check the records and state TGI for `Nc1ccccc1NC(=O)c1ccc(CNc2nccc(-c3cccnc3)n2)cc1` > 100 µM

----------
test system: EKVX NSCLC; assay: NCI tumour cell line growth inhibition, 48 h
Give TGI for every item shown.

State the measured TGI (EKVX NSCLC) of c1cnn(C23C4C5C6C4C2C6C53)c1 (configuration not stated) > 100 µM

State the measured TGI (EKVX NSCLC) of `Cc1cc(Nc2ccc(OCc3ccccc3)cc2)nc2cc(O)ccc12` 27.2 µM

State the measured TGI (EKVX NSCLC) of `CN(C)c1ccc(/C=C/C(=O)[O-])cc1.CN(C)c1ccc(/C=C/C(=O)[O-])cc1.[Cu+2]` > 100 µM

State the measured TGI (EKVX NSCLC) of `Cc1c(C)c(C)c(CC2(C)CSC2)c(CC2(C)CSC2)c1C` > 100 µM

State the measured TGI (EKVX NSCLC) of `CN(C)CCNc1nc2ccccc2c2c1CCCC2` > 100 µM

State the measured TGI (EKVX NSCLC) of `Cc1cc(=O)[nH]c(N/N=C/c2cc(Br)ccc2O)n1` 7.67 µM

State the measured TGI (EKVX NSCLC) of `Cc1cc(Cl)cc2c(N=Nc3ccc(S(N)(=O)=O)cc3)c(O)[nH]c12` > 25 µM

State the measured TGI (EKVX NSCLC) of `CC1=C(O)c2cn(C)cc2C(=O)C1=O` > 100 µM

State the measured TGI (EKVX NSCLC) of COC(=O)C(=O)C(C(=O)C(=O)Nc1cccc(C(C)=O)c1)c1nc2ccc([N+](=O)[O-])cc2[nH]c1=O (configuration not stated) > 100 µM

State the measured TGI (EKVX NSCLC) of `Oc1cc(O)c2ccc(-c3ccc(O)c(O)c3)[o+]c2c1` > 100 µM

State the measured TGI (EKVX NSCLC) of `O=C(NC(Cl)(C(F)(F)F)C(F)(F)F)c1ccc(F)cc1` > 100 µM

State the measured TGI (EKVX NSCLC) of COc1ccc(CC2C3=C(CCN2C(=O)C2CCC2)CC2(CC3)OCCO2)cc1O (configuration not stated) > 100 µM

State the measured TGI (EKVX NSCLC) of `Cc1sc2[nH]c(=O)oc(=O)c2c1C` > 100 µM

State the measured TGI (EKVX NSCLC) of `O=c1[nH]nc(Cc2ccc(Cl)cc2)n1/N=C/c1ccco1` > 100 µM

State the measured TGI (EKVX NSCLC) of `Nc1ccccc1Nc1ccccc1C(=O)[O-].Nc1ccccc1Nc1ccccc1C(=O)[O-].[Zn+2]` > 100 µM

State the measured TGI (EKVX NSCLC) of Nc1nc2c(ncn2C2CCC(CO)O2)c(=O)n1C(=O)c1ccccc1 (configuration not stated) > 100 µM

State the measured TGI (EKVX NSCLC) of NS(=O)(=O)OCC1OC(n2cnc3cncnc32)C(O)C1O (configuration not stated) 0.647 µM

State the measured TGI (EKVX NSCLC) of `CSc1ccc(-c2ccccc(=O)c2O)cc1` 3.96 µM

State the measured TGI (EKVX NSCLC) of CCOP(=O)(C=C=C1CCC2[C@@H]3CCc4cc(OC)ccc4C3CC[C@]12C)OCC (some centres not stated) 21.9 µM

State the measured TGI (EKVX NSCLC) of `COc1cc2nc(Nc3cccc(Br)c3)nc(Nc3cccc(Br)c3)c2cc1OC` 39.8 µM

State the measured TGI (EKVX NSCLC) of `CC[C@H](NC(=O)[C@H]1CCCCN1C)C(=O)N(C)[C@H](C[C@@H](OC(C)=O)c1nc(C(=O)N[C@@H](Cc2ccccc2)C[C@H](C)C(=O)O)cs1)C(C)C` > 14.3 µM

State the measured TGI (EKVX NSCLC) of `Cc1c(O)c2ccccc2oc1=O` > 100 µM

----------
tested on: A549 NSCLC; assay: NCI tumour cell line growth inhibition, 48 h
Give TGI for every item shown.
The figure you give is taken to be in µM; do not add the unit.

State the measured TGI (A549 NSCLC) of `C[n+]1c(/C=C/c2c[nH]c3ccccc23)ccc2ccccc21` 26

State the measured TGI (A549 NSCLC) of CC[C@@H]1[C@@H](C)O[C@@](O)([C@@H](C)[C@H](O)[C@H](C)[C@H]2OC(=O)/C=C/C=C/[C@H](C)[C@@H]([C@@H](C)[C@@H](O)[C@H](C)[C@@]3(O)C[C@@H](O[C@H]4C[C@@H](O)[C@H](O)C(C)O4)[C@H](CC)[C@@H](C)O3)OC(=O)/C=C/C=C/[C@@H]2C)C[C@H]1O[C@@H]1C[C@@H](O)[C@H](O)C(C)O1 (some centres undefined) 0.344

State the measured TGI (A549 NSCLC) of `CCN(CC)Cc1cc(Nc2c3ccccc3nc3c2[nH]c2ccccc23)cc(CN(CC)CC)c1O` 10.4

State the measured TGI (A549 NSCLC) of `CCOC(=O)[C@@H](C)C[C@H](Cc1ccccc1)NC(=O)c1nc([C@@H](C[C@H](C(C)C)N(C)C(=O)[C@@H](NC(=O)[C@H]2CCCCN2C)C(C)C)OC(C)=O)sc1CCOCc1ccccc1` 2.17
